METHOD NOTES: growth suppression of PTEN-deleted HCT116, pilot screen, cell-based, HCT116 clonal line, CellTiter-Glo (AID 824);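 further: 0% = 20 µM Hyamine control and 100% = vehicle cell control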
DETAILS: 60 h, at 10 µM, hits give low values
Inconclusive results are not listed.
MEASURED PROPERTY: viability (%)
Unit % implied. Number only.

COMPOUND: CC(=O)C1(O)C(C)CC2C3CCC4CC(O)CCC4(C)C3=CCC21C (stereo not given)
viability / %: 90.2
//
COMPOUND: Cc1cccc(C(=O)Nc2cc(=O)n(C)c(=O)n2C)c1
viability / %: 92.4
//
COMPOUND: Cn1c(Cn2c(=O)sc3ccccc32)nnc1SCC(=O)Nc1ccc(Cl)cc1
viability / %: 89
//
COMPOUND: CN(c1ccc(C(=O)O)cc1)S(=O)(=O)c1ccccc1
viability / %: 92.5

Now take the following compound into account.
Input CCn1c(SCC(=O)NCCOc2ccccc2)nc2ccccc2c1=O , output reported viability.
92.6

---

METHOD NOTES: OD615 S. cerevisiae growth inhibition, permissive medium, pilot counter-assay, permissive growth control for S. cerevisiae lifespan shortening project (AID 705)
DETAILS: OD615, 24 h, at 10 µM, hits give high values
Given measured growth inhibition, output yes (1) if it is greater than or equal to -10% and no (0) if not.

Example results:
MOLECULE: CCOC(=O)c1cccc(NC(=O)C2CCCN2S(=O)(=O)c2cccc3cccnc23)c1 (stereo unspecified)
ASSIGNED CATEGORY: yes (1)
--
MOLECULE: CN(C)S(=O)(=O)Nc1ccc2c(c1)Cc1ccccc1-2
ASSIGNED CATEGORY: no (0)
--
MOLECULE: COc1ccc(N2C(=O)CCC(C(=O)Nc3ccccn3)C2c2ccc(OC)c(OC)c2)cc1 (stereo unspecified)
ASSIGNED CATEGORY: yes (1)
--
MOLECULE: C=CCSc1nnc2c(n1)[nH]c1c(C)cccc12
ASSIGNED CATEGORY: no (0)
--
MOLECULE: CC(=O)Oc1ccc(N2C(=O)CC(N3CCOCC3)C2=O)cc1 (stereo unspecified)
ASSIGNED CATEGORY: yes (1)
--
MOLECULE: CCOc1ccc(N(CC(=O)Nc2ccccc2C)S(=O)(=O)c2c(C)noc2C)cc1
ASSIGNED CATEGORY: yes (1)

Could you verify whether the entry COCCNC(=O)C1CCN(S(=O)(=O)c2ccccc2)CC1 shows growth inhibition of no less than -10%?
yes (1)

Could you verify whether the entry CCCNC(=O)C1CC(=O)N(c2ccc(OCC(=O)Nc3cccc(C)c3C)cc2)C1 (stereo unspecified) shows growth inhibition of no less than -10%?
no (0)

---

viability values by entry
METHOD NOTES: growth suppression of beta-catenin knockout HCT116, pilot screen, human colon tumor cells (AID 823);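 further: 0% = wells killed by 20 µM Hyamine and 100% = untreated DMSO cell wells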
DETAILS: CellTiter-Glo, 60 h, at 10 µM, hits give low values
Results filed as inconclusive are left out.
Unit % implied. Number only.

MOLECULE: CC1CCCCN1C(=O)CSCC(=O)Nc1nc(-c2cccs2)cs1 (configuration not stated)
viability [%]: 99.2
//
MOLECULE: COc1ccc(N(CC(=O)NCc2cccnc2)S(=O)(=O)c2c(C)nn(C)c2C)cc1
viability [%]: 98.5
//
MOLECULE: O=C(NCc1ccncc1)C(F)(F)C(F)(F)C(=O)NCc1ccncc1
viability [%]: 93.9
//
MOLECULE: O=c1cc(CSc2nnc(-c3ccccc3)o2)c2ccccc2[nH]1
viability [%]: 99.2
//
MOLECULE: COc1ccc(C2NC(=O)NC(O)(C(F)(F)F)C2C(=O)c2ccc(C)cc2)cc1 (configuration not stated)
viability [%]: 100
//
MOLECULE: COc1cccc(C(=O)Nc2cc(=O)n(C)c(=O)n2C)c1
viability [%]: 103
//
MOLECULE: CC(C)(C)Nc1ncnc2c1cnn2-c1ccccc1
viability [%]: 92.3
//
MOLECULE: COc1ccc(N2CCN(C(=O)C3CCCN(S(=O)(=O)c4cccc5cccnc45)C3)CC2)cc1 (configuration not stated)
viability [%]: 69.6
//
MOLECULE: Cc1nn(Cc2nc(-c3cccs3)no2)c(C)c1Br
viability [%]: 103
//
MOLECULE: COc1ccc(-c2nc3cnccn3c2Nc2ccc3c(c2)OCO3)cc1
viability [%]: 70.9

Input O=C(OCC(F)(F)C(F)F)c1ccccc1C(=O)Oc1ccc(F)cc1F , output reported viability.
99.1

Input COc1ccc(N)cc1C#N , output reported viability.
98.5

Input COc1ccc(N2CCN(C(=O)c3sc4nc(-c5ccc(F)cc5)cn4c3C)CC2)cc1 , output reported viability.
102

Input Cc1cc(=O)[nH]c(Cc2ccc(OC(C)C)cc2)n1 , output reported viability.
98.4

Input N#CC1=C(O)CCCn2c1nc1ccccc1c2=O , output reported viability.
97

Input Cc1cccc(CCNC(=O)CN(C)S(=O)(=O)c2ccc3c(c2)c(=O)n(C)c(=O)n3C)c1 , output reported viability.
102

Input CC1(C)Oc2ccc3ccc(=O)oc3c2/C(=C/N)C1=O , output reported viability.
88.5

---

METHOD NOTES: RAM signaling pathway blockade in yeast – S. cerevisiae, Pdr1DBD-CYC8 efflux-inhibited sensitized strain, primary screen (AID 1298);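 further: 0% = DMSO untreated cells without growth and 100% = 10 µM 1-NA-PP1 full growth; higher means more yeast growth rescued from 5-FOA killing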
DETAILS: S. cerevisiae cbk1-as DSE1-URA3 strain, 5-FOA growth OD615, 2 d; at 50 µM; hits give high values
MEASURED PROPERTY: RAM network inhibition (%)
Unit % implied. Number only.

COMPOUND: O=c1cc(-c2ccccc2Cl)c2c([nH]1)CCC2
UNIT DESCRIPTOR: %
READOUT VALUE: 0.26
//
COMPOUND: CCOC12NC(=O)CC(=O)N1C(c1ccccc1)=CS2 (stereo not drawn)
UNIT DESCRIPTOR: %
READOUT VALUE: 6.38
//
COMPOUND: CSC1=NCCN1C(=O)Cc1ccc(Cl)cc1
UNIT DESCRIPTOR: %
READOUT VALUE: -0.15

Input CC(C)Sc1nc2c(c(=O)n1C)SC(C)C2 (stereo not drawn) , output reported RAM network inhibition.
5.77

Input C=CCOc1cccc(C2c3c(oc4ccccc4c3=O)C(=O)N2c2ccccn2)c1 (stereo not drawn) , output reported RAM network inhibition.
9.18

Input O=C1c2ccccc2CCC1C(O)c1ccccn1 (stereo not drawn) , output reported RAM network inhibition.
1.24

Input CC(=NCCc1ccccc1)C1=C(O)CSC1=O , output reported RAM network inhibition.
1

Input COc1ccc(C2C(C(=O)N3CCN(c4ccccc4)CC3)c3ccccc3C(=O)N2C)cc1 (stereo not drawn) , output reported RAM network inhibition.
2.38

Input CCOCCn1c(SCc2cccc(C)c2)nc2c1c(=O)[nH]c(=O)n2C , output reported RAM network inhibition.
2.37

---

METHOD NOTES: OD615 S. cerevisiae growth inhibition, permissive medium, pilot counter-assay, permissive growth control for S. cerevisiae lifespan shortening project (AID 705)
DETAILS: OD615, 24 h, at 10 µM
Active and inactive are the calls of the source.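 How the source made its calls: active means growth inhibition above 25% in both replicates, a cutoff set 3 SD above the mean; inconclusive means above 25% in only one replicate; inactive means the rest.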
Choose the fitting class; nothing outside label 1 = active, label 0 = inactive is accepted.

For this molecule, state the assay outcome: O=C1C(=O)N(CCO)C(c2ccccc2)/C1=C(\O)c1ccccc1 (stereo unspecified)
label 0

For this molecule, state the assay outcome: CCOc1ccc(N(CC(=O)OC)S(=O)(=O)c2c(C)noc2C)cc1
label 0

For this molecule, state the assay outcome: CCOC(=O)c1c(N)sc2c(O)c(Br)ccc12
label 0

For this molecule, state the assay outcome: COc1ccc(-c2nnc(NC(=O)C(C)C)s2)c(OC)c1
label 0

---

METHOD NOTES: RAM signaling pathway blockade in yeast – S. cerevisiae, Pdr1DBD-CYC8 efflux-inhibited sensitized strain, primary screen (AID 1298);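 further: 0% = DMSO untreated cells without growth and 100% = 10 µM 1-NA-PP1 full growth; higher means more yeast growth rescued from 5-FOA killing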
DETAILS: S. cerevisiae cbk1-as DSE1-URA3 strain, 5-FOA growth OD615, 2 d; at 50 µM; hits give high values
RAM network inhibition values by entry
Unit % implied. Number only.

MOLECULE: COc1cccc(-n2c(Cc3cc(=O)[nH]c(=O)[nH]3)nnc2SCC(=O)N2CCCCCC2)c1
UNIT DESCRIPTOR: %
RAM network inhibition: 7.07

MOLECULE: CCCCn1c(CNC(=O)c2cccs2)nc2ccccc21
UNIT DESCRIPTOR: %
RAM network inhibition: -1.56

Now take the following molecule into account.
Input CCCN1C(=O)c2cc(C(=O)NCc3cccs3)ccc2C1O (stereo unspecified) , output reported RAM network inhibition.
-0.69

---

METHOD NOTES: OD615 S. cerevisiae growth inhibition, permissive medium, pilot counter-assay, permissive growth control for S. cerevisiae lifespan shortening project (AID 705)
DETAILS: OD615, 24 h, at 10 µM, hits give high values
The source made the active and inactive calls.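 The calls were made as follows: active = growth inhibition above 25% in both replicates, a cutoff set 3 SD above the mean; inconclusive = above 25% in only one replicate; inactive = the rest.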
MEASURED PROPERTY: growth inhibition

Input CN(Cc1ccccc1)S(=O)(=O)c1ccc2[nH]c(=O)oc2c1 , output reported growth inhibition.
-17.3% (inactive)

Input Cc1c(C(=O)NCc2ccc3c(c2)OCO3)oc2ccccc12 , output reported growth inhibition.
1.35% (inactive)

Input COc1ccccc1CNC(=O)C1CCN(S(=O)(=O)c2cccc3cccnc23)CC1 , output reported growth inhibition.
5.11% (inactive)

Input N#Cc1ccc(Oc2cccnc2)cc1C#N , output reported growth inhibition.
-13.5% (inactive)

Input Cc1onc(-c2ccccc2Cl)c1C(=O)Nc1nnc(-c2ccc(F)cc2)s1 , output reported growth inhibition.
-16.7% (inactive)

Input CCOCCCNC(=O)C(c1ccc(OC)cc1)N(Cc1ccc2c(c1)OCO2)C(=O)CNC(C)=O (stereo unspecified) , output reported growth inhibition.
-6.78% (inactive)

Input CCCc1cc(=O)[nH]c(SCC(=O)N2CCN(S(=O)(=O)c3ccc(C)cc3)C2)n1 , output reported growth inhibition.
-4.67% (inactive)

Input CCN(CC)c1ccc(NC(=O)Cn2cc3c(n2)CCC(C)C3)c(C)c1 (stereo unspecified) , output reported growth inhibition.
2.12% (inactive)

Input Cc1cc(NC(=O)Nc2cccc3ccccc23)no1 , output reported growth inhibition.
-3.55% (inactive)

Input Nc1nc2n(n1)C(c1ccccc1)CC(c1ccc(F)cc1)N2 (stereo unspecified) , output reported growth inhibition.
-2.32% (inactive)

Input Cc1cc2ccccc2n1CCNC(=O)C(C)(C)C , output reported growth inhibition.
3.07% (inactive)
